Reported relative viability values are given for each entry in this list.
System: COR-L23
Test: relative viability (nuclei count vs DMSO), 5 days (fraction); higher = more cells survive
Conditions: first compound 0.003162 µM
measuredEndpoint: relative viability

compound	recordedValue
Cc1cn(-c2cc(NC(=O)c3ccc(C)c(Nc4nccc(-c5cccnc5)n4)c3)cc(C(F)(F)F)c2)cn1 [Nilotinib] + N=C(N)NC(=N)NCCc1ccccc1 [Phenformin] (partner 250 µM)	0.52
Cc1cn(-c2cc(NC(=O)c3ccc(C)c(Nc4nccc(-c5cccnc5)n4)c3)cc(C(F)(F)F)c2)cn1 [Nilotinib] + CC(=O)Nc1cccc(-n2c(=O)n(C3CC3)c(=O)c3c(Nc4ccc(I)cc4F)n(C)c(=O)c(C)c32)c1 [Trametinib] (partner 0.02 µM)	0.419
Cc1cn(-c2cc(NC(=O)c3ccc(C)c(Nc4nccc(-c5cccnc5)n4)c3)cc(C(F)(F)F)c2)cn1 [Nilotinib] + CS(=O)(=O)N1CCN(Cc2cc3nc(-c4cccc5[nH]ncc45)nc(N4CCOCC4)c3s2)CC1 [Pictilisib] (partner 1 µM)	1.01
Cc1cn(-c2cc(NC(=O)c3ccc(C)c(Nc4nccc(-c5cccnc5)n4)c3)cc(C(F)(F)F)c2)cn1 [Nilotinib] + CCNC(=O)c1noc(-c2cc(C(C)C)c(O)cc2O)c1-c1ccc(CN2CCOCC2)cc1 [Luminespib] (partner 0.01 µM)	0.557
Cc1cn(-c2cc(NC(=O)c3ccc(C)c(Nc4nccc(-c5cccnc5)n4)c3)cc(C(F)(F)F)c2)cn1 [Nilotinib] + Nc1nc2[nH]cc(CCc3ccc(C(=O)N[C@@H](CCC(=O)O)C(=O)O)cc3)c2c(=O)[nH]1 [Pemetrexed] (partner 0.2 µM)	0.183

FYI, the data here is from the supplement of paper PMC10307832.
